target: CDK5/CDK5R1 (Homo sapiens)
Sequence (Q00535 whole entry): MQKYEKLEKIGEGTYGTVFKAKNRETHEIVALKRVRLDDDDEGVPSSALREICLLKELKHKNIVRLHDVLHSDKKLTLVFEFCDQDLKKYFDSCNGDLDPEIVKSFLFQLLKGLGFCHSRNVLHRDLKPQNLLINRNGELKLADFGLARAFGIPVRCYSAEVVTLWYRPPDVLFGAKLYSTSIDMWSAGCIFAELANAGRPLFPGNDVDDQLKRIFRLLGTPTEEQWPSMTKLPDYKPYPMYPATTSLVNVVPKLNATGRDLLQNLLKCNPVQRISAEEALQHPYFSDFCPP
Sequence (Q15078 whole entry partner): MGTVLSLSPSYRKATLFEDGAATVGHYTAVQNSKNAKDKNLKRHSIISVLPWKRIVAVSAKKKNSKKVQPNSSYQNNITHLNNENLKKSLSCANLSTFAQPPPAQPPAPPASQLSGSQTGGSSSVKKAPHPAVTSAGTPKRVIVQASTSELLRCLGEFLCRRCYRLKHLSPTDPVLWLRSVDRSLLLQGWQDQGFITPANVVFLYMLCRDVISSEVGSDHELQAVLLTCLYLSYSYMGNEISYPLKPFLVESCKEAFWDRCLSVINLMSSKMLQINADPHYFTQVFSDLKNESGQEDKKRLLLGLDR
test-name: NanoBRET live-cell target engagement, CDK5-NanoLuc/CDK5R1 in HEK-293
Format: binding
run-parameters: CDK5/CDK5R1; 10µM
Entries annotated with measured Inhibition at 10µM (%) Replicate 2
observable: Inhibition at 10µM (%) Replicate 2

INSERT INTO results (compound, target, result) VALUES
  ('CNC1CCN(C(=O)c2ccc(Nc3ncc(F)c(-c4cnc(C)n4C(C)C)n3)cc2)C1 (stereo not shown)', 'CDK5/CDK5R1 (Homo sapiens)', 97.1),
  ('O=C(Nc1c[nH]nc1-c1ccccn1)c1nn(C2CCNCC2)cc1Cl', 'CDK5/CDK5R1 (Homo sapiens)', -3.3),
  ('CC(C)c1cnn2c(NCc3ccccc3)cc(N[C@@H](CO)[C@H](O)CO)nc12', 'CDK5/CDK5R1 (Homo sapiens)', 93.7),
  ('CCC(CO)Nc1nc(Nc2cccc(-c3ccccn3)c2)c2ncn(C(C)C)c2n1.Cl.O [(R) - DRF053]', 'CDK5/CDK5R1 (Homo sapiens)', 71.6);
